Source listed as PubChem BioAssay (NCI).

Assay: NCI Yeast Anticancer Drug Screen. Data for the rad50 strain (AID 155);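 further: 0% = growth of vehicle-only cultures of the same strain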
Details: S. cerevisiae rad50 strain growth inhibition; at 50.0 µM; active compounds read high
About 79,000 compounds went through this panel and 15% of them were active in at least one assay; those are over-represented in the sample as a whole.

| compound | growth inhibition, % |
| --- | --- |
| COc1ccccc1N1C(=O)C2c3[nH]c4ccccc4c3C3CCC(C(C)(C)C)CC3C2C1=O (configuration not stated) | 17.8 |
| COc1ccc(OCC(=O)N2CCCCC2)cc1 | -2.95 |
| COc1ccc(C)cc1CC(=O)O | 7.5 |
| O=[N+]([O-])c1ccc(N=Nc2c(O)c3ccccc3c3ccccc23)c([N+](=O)[O-])c1 | 46.6 |
| CCOC(=O)C1=C(C)N(NC(N)=O)C2(O)CCCC(=O)C12C (configuration not stated) | 5.35 |
| Clc1nc2ccccc2c2ccccc12 | 36.5 |
| Cc1ccc(S(=O)(=O)c2c(N)c3nc4ccccc4n3c3nc4ccccc4nc23)cc1 | 21.4 |
| Cc1cc(C)c(C(=O)OCCN(C)C)c(C)c1 | 10.8 |
| Cc1ccc2c(c1)C(=O)c1cc(C)cc(C(=O)O)c1-2 | -22.6 |
| CC(=O)OCCOCNC(=S)N/N=C/c1ccc([N+](=O)[O-])s1 | 35.4 |
| O=NN(CCCl)C(=O)N(C1CCCCC1)C1CCCCC1 | 8.5 |
| C=C(CCl)CCl | 42.4 |
